Overview of recorded protein stability index for various variants
B1: VPS39 (parent)
chain: LRLENNHCHIEESEHVLKKAHKYS

# Variants of: B1
# Method: protein stability index of a GFP-peptide fusion (GPS, HEK-293T) (PSI 1-6); higher = more stable;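 further: lentivirally expressed fusions sorted by FACS into six bins by GFP to DsRed ratio, PSI derived from sequencing read proportions per bin multiplied by bin number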
# Experimental Setup: c terminus: a fixed tail appended
The answer should be a number; do not append a unit.

Example entries and their recorded answers appear below.
Mutation String	Outcome Measure	Quantitative Readout
H7N	protein stability index	3.37
N5H	protein stability index	1.91
N6L	protein stability index	2.58
V16R	protein stability index	2.48
Y23P	protein stability index	2.56
H7E	protein stability index	2.38
N5Q	protein stability index	2.18
H21Y	protein stability index	2.25
L17Y	protein stability index	2.55
H21C	protein stability index	2.63

Exam item: Entry `Y23K` : reported protein stability index = ?
Marked response: 2.21

Exam item: Again, but for `N6S`
Marked response: 2.55

Exam item: Again, but for `N6V`
Marked response: 2.13

Exam item: Again, but for `S24C`
Marked response: 2.17
